read-out: cysteine-aspartic acid protease (CASP8), CASP8 (gene 841); test: LTEA_HepaRG_CASP8: Life Technologies and Expression Analysis (LTEA) Assay for cysteine-aspartic acid protease (CASP8) using HepaRG (AID 2283480); conditions: mRNA level, 48 h; actives raise or lower the signal
Active and inactive are the calls of the source. The calls were made as follows: active = hit-call score of the fitted dose curve at least 0.9, where 1 is the maximum; inactive = score below 0.9.
Just give me one of these, please: active, inactive

Prompt: Test call for this molecule, please: COC(=O)CCCC(=O)OC
Completion: inactive

Prompt: Same question for CCOCCOCCO please.
Completion: inactive

Prompt: Do the same for O=C1c2c(O)cccc2Cc2cccc(O)c21 please
Completion: inactive

Prompt: Now the molecule Cc1occc(=O)c1O
Completion: inactive

Pending molecule:
Prompt: Write down the call the test reported for this molecule. Item: C=CCCCCCCCCCCCC
Completion: inactive
